B1: Histidine--tRNA ligase, cytoplasmic, residues 8 to 45; numbered along this chain, P12081 (parent)
chain: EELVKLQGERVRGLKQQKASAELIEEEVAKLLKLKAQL

Variants of: B1
Assay: abundance fitness (aPCA) (normalised: wild type 0, dead -1); higher = more abundant; growth selection in yeast, the domain comes from the species named
Details: Homo sapiens
// values below are reported abundance fitness

These solved cases illustrate the format of a correct answer.
{"Alteration": "Q17R", "abundance fitness": -0.196}
{"Alteration": "E25K", "abundance fitness": -0.001}
{"Alteration": "K30V", "abundance fitness": -0.136}
{"Alteration": "R12A", "abundance fitness": 0.218}
{"Alteration": "A21I", "abundance fitness": -0.101}
{"Alteration": "A21N", "abundance fitness": 0.119}
{"Alteration": "G13Q", "abundance fitness": 0.253}
{"Alteration": "E1S", "abundance fitness": -0.737}
{"Alteration": "E9N", "abundance fitness": 0.035}
{"Alteration": "I24M", "abundance fitness": -0.03}

Just so you know, measured abundance fitness for V4M came out at -0.079

GET /value?item= A29N &field=abundance fitness returns -0.183
